Examples of binders with documented EC50 (read off the curve) follow.
Target: T1, recombinant C-terminal ApoE fragment G200-HIS (ApoE-G200-H299-10xHIS) (human, UniProt P02649 218-317)
T1 construct: also called G200-HIS fragment
T1 sequence (P02649 other isoform, or with tags, fused parts or gaps limits assumed): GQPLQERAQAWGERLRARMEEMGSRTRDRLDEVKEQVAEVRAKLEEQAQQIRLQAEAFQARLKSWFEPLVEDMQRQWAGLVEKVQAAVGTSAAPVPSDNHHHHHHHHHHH
Test: direct ELISA, target coated at 1 ug/ml, supernatant in 3-fold dilutions from 1000 ng/ml, OD 450 nm

The cases that follow already have their EC50 (read off the curve) on record.
>>> recorded_measurement("28F2, hybridoma monoclonal antibody (unpurified supernatant) (antibody, mouse IgG1, V domains shown) VH: QIQLVQSGPDLKKPGETVKISCKASGYTFTNYAMHWMKQAPGKALKWMGWINTYTGEPTFADDFKGRFAFSLETSASTAYLQINSLKNEDMATYFCAREGYYDRSHYFDYWGQGTTLTVSS VL: DVLMTQTPLSLPVSLGDQASISCRSSLSLVHGDGNTYLEWYLQKPGQSPKLLIYKVSNRFSGVPDRFSGSGSGTDFTLKISRVEAEDLGVYYCLQGSHIPFTFGSGTKLEIK")
"~5 ng/mL"
>>> recorded_measurement("7B10, hybridoma monoclonal antibody (unpurified supernatant) (antibody, mouse IgG1, V domains shown, also called 7610) VH: AVQLVESGGGLVKPGRSLKLSCAASGFTFSSYAMSWVRQFPDKRLDWVAEISSGGGSTNYLDTVTGRFTISRDNAKNTLYLEMNSLRSEDTAMYYCARQLVGTDYYGTDYWGQGTSVTVSS VL: DVLMTQTPLSLPVSLGDQASISCRSSQNIVYSNGNTYLEWYLQKPGQSPKLLIYKVSNRFSGVPDRFSGSGSGTDFTLKISRVEAEDLGVYYCFQGSHVPYTFGGGTKLEIK")
"~8 ng/mL"

Exam item: Quick check: EC50 (read off the curve) of 4E6, hybridoma monoclonal antibody (unpurified supernatant) (antibody, V domains shown) VH: EVQLVESGGDLVKPGGSLKLSCAASGFTFSSYAMSWVRQSPEKRLEWVAEISGSGSRDHYTDSVTGRFTVSRDNAKNTLYLEMSSLRSEDTAIYYCARQLTGTDYYGTDYWGQGTSVTVSS VL: DVLMTQIPLSLPVSLGDQASISCRSSQSIVYSNGNTYLEWYLQRPGQSPKLLIYKVSNRFSGVPDRFSGSGSGTDFTLKISRVEAEDLGVYYCFQGSHLPYTFGGGTKLEIK ?
Marked response: ~10 ng/mL

Reference source for all entries: patent US20220242939A1
